STUDY TARGET: UniProt:Q80J95
MEASURED METRIC: pIC50
Scale: negative log10 of molar concentration, which is what pIC50 denotes.

Query :: Item: O=C1NN(c2ccccc2)C(=O)/C1=C/c1ccc(-c2ccc(S(=O)(=O)Nc3ccccc3)cc2)o1 [Compound 54] Test system: UniProt:Q80J95 Read-out: pIC50 Value: ?
Result :: 4.92

###

System: norovirus RdRp
PROTOCOL DETAILS: Counter-screen gel-shift RdRp assay (primed elongation of PE44-NoV template)
Format: biochemical, human norovirus
EXPERIMENTAL CONDITIONS: fixed concentration of 100 µM
MEASURED METRIC: inhibition of primed elongation activity (gel-shift)

chem_smiles=Cc1cc(C(=O)O)ccc1-c1ccc(/C=C2\SC(=O)N(CC(=O)N3CCOCC3)C2=O)o1 study_target="norovirus RdRp" endpoint_result="complete inhibition"
chem_smiles=Cc1ccc(N2NC(=O)C(=Cc3ccc(-c4ccc(S(=O)(=O)Nc5nccs5)cc4)o3)C2=O)cc1 study_target="norovirus RdRp" endpoint_result="complete inhibition"

###

STUDY TARGET: human norovirus Sydney 2012 RdRp (Norovirus GII.4 (Norwalk virus, human norovirus))
PROTOCOL DETAILS: Fluorescent de novo RdRp activity assay (PicoGreen, poly(C) template)
Format: biochemical
EXPERIMENTAL CONDITIONS: 100 µM; initial screen of purchased compounds
MEASURED METRIC: inhibition of human norovirus RdRp activity

molecule="COc1cccc(NC(=O)Cn2nc(C(F)(F)F)cc2C2CC2)c1 [AK-968/41925073]" study_target="human norovirus Sydney 2012 RdRp (Norovirus GII.4 (Norwalk virus, human norovirus))" endpoint_result="over 25%"
molecule="CCC(O)CC(C(=O)NNc1ccccc1)C(=O)NNc1ccccc1 (stereo not shown) [AE-562/12222591]" study_target="human norovirus Sydney 2012 RdRp (Norovirus GII.4 (Norwalk virus, human norovirus))" endpoint_result="over 25%"

###

STUDY TARGET: human norovirus Sydney 2012 RdRp (Norovirus GII.4 (Norwalk virus, human norovirus), UniProt K4L8Z7)
PROTOCOL DETAILS: Fluorescent de novo RdRp activity assay (PicoGreen, poly(C) template)
Format: biochemical
EXPERIMENTAL CONDITIONS: read-out: inhibition of human norovirus RdRp activity, 100 µM; initial screen of purchased compounds
MEASURED METRIC: inhibition at 100 µM

compound="C/C(=N\\NC(=O)c1ccccc1O)c1ccc(O)cc1O [Compound 12]" endpoint_result="> 25%"

Query :: Consider the compound CC(NC(=O)CCC(=O)Nc1ccccc1O)c1ccccc1 (centres unmarked) [Compound 7] and give its measured inhibition at 100 µM.
Result :: > 50%

Query :: Consider the compound O=C(O)c1ccccc1-c1ccccc1C(=O)Nc1cccc(O)c1 [Compound 6] and give its measured inhibition at 100 µM.
Result :: > 50%

Query :: Consider the compound O=C(C1=C(O)C(=O)N(Cc2ccco2)C1c1cccc(O)c1)c1ccc2c(c1)OCCO2 (centres unmarked) [Compound 8] and give its measured inhibition at 100 µM.
Result :: > 25%

Query :: Consider the compound Cc1ccc(N2NC(=O)C(=Cc3ccc(-c4ccc(S(=O)(=O)Nc5nccs5)cc4)o3)C2=O)cc1 [Compound 11] and give its measured inhibition at 100 µM.
Result :: > 50%

###

PROTOCOL DETAILS: Observed compound solubility
Assay type: physicochemical
EXPERIMENTAL CONDITIONS: assay conditions / 100% DMSO
MEASURED METRIC: solubility (observation)

chem_smiles=O=C(Nc1ccc(O)c(-c2nc3ccccc3o2)c1)c1cccnc1 endpoint_result=insolubility
chem_smiles=O=C(O)c1ccc2nc(-c3cccc(-c4nc5ccc(C(=O)O)cc5[nH]4)c3)[nH]c2c1 endpoint_result=insolubility
